- assay-system: human recombinant PDE10A (Homo sapiens)
- Construct: made in house; host or cells: SF21 insect cells (baculovirus)
- Sequence (Q9Y233 1-779 isoform Q9Y233-1): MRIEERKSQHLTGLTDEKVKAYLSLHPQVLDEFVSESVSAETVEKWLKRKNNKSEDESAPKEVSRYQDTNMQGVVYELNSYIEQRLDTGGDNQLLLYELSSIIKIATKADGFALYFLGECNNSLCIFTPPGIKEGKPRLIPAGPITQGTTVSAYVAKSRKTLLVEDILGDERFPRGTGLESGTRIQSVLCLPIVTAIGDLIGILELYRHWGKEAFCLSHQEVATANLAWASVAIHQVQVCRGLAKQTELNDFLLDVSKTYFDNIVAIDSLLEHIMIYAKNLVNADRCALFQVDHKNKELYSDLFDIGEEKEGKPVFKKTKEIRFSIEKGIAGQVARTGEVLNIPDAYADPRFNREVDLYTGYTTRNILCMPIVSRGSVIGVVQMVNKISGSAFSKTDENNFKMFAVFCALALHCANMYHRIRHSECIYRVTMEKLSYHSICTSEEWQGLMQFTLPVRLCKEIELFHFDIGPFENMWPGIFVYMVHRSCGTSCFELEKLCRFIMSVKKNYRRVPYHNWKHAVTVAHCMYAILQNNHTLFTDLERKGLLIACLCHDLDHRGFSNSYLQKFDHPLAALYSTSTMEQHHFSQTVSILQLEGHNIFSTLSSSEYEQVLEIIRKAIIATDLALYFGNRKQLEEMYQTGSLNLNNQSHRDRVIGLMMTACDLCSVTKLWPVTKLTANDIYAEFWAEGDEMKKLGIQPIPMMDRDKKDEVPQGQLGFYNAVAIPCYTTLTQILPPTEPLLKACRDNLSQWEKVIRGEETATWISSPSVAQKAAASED
- procedure-summary: Inhibition of PDE10, human recombinant PDE10A ([3H]-cAMP SPA)
- Format: biochemical
- condition-label: Table 8, cell marked Human PDE10; read-out: IC50 (nM) (Human PDE10)
measured-quantity: IC50

Entry under test: CCCc1nc(C)c2c(C)nc3ccc(=O)[nH]c3n12 . Its IC50 was > 100 nM

---

Field: IC50. Provide a value for each of the molecules that follow.
- assay-system: human recombinant PDE10A (Homo sapiens)
- Construct: made in house; host or cells: SF21 insect cells (baculovirus)
- procedure-summary: Inhibition of PDE10, human recombinant PDE10A ([3H]-cAMP SPA)
- Assay type: biochemical
- condition-label: Table 9; read-out: hPDE10 IC50

// molecule Cc1cc(C(N)=O)ccc1-c1nc(C)c2c(C)nc3ccc(OCC4CC4)nc3n12 , assay human recombinant PDE10A (Homo sapiens), IC50 value: < 10 nM

Cc1ccc(C(=O)O)cc1-c1nc(C)c2c(C)nc3ccc(OCC4CC4)nc3n12 tested on human recombinant PDE10A (Homo sapiens) gave IC50: > 100 nM

I looked up COc1ccc2nc(C)c3c(C)nc(-c4ccc(Cl)c(C(N)=O)c4)n3c2n1 and its IC50 for human recombinant PDE10A (Homo sapiens) was 10 to 100 nM

The measured IC50 that COc1ccc2nc(C)c3c(C)nc(-c4ccc(C(N)=O)c(Cl)c4)n3c2n1 showed for human recombinant PDE10A (Homo sapiens) is < 10 nM
